testDetails: Primary qHTS to identify inhibitors of SARS-CoV-2 cell entry (AID 1645846); note: nearly all actives have a fitted effect of over 45% in size
conditionLabel: SARS-CoV-2 pseudovirus cell entry assay, luminescence; at 57.1 µM (top of the series) unless noted
Results filed as inconclusive are left out.
Answer each item with its documented activity change, negative = inhibition.
Give just the numeric value; % need not be written.

QUERY: Give activity change, negative = inhibition for NC(=O)c1ccc(I)c([N+](=O)[O-])c1
RESULT: -6.13

QUERY: Give activity change, negative = inhibition for CC(C)(C)COc1ccc(-n2cc(C(=O)O)cn2)cc1C#N
RESULT: -72.8

QUERY: Give activity change, negative = inhibition for COc1cc2c(cc1OC)[C@@H]1C(=O)c3ccc4c(c3O[C@@H]1CO2)C=CC(C)(C)O4
RESULT: -98.6

QUERY: Give activity change, negative = inhibition for O=C(O)CCc1ccc(NCc2cccc(Oc3ccccc3)c2)cc1
RESULT: -10.2

QUERY: Give activity change, negative = inhibition for COc1ncnc(NS(=O)(=O)c2ccc(N)cc2)c1OC
RESULT: -2.62

QUERY: Give activity change, negative = inhibition for CN[C@@H](C)C(=O)N[C@H]1CCCC[C@H]2CC[C@@H](C(=O)N[C@@H](c3ccccc3)c3cn(CCCCc4ccc(CCCCn5cc([C@@H](NC(=O)[C@@H]6CC[C@@H]7CCCC[C@H](NC(=O)[C@H](C)NC)C(=O)N76)c6ccccc6)nn5)cc4)nn3)N2C1=O
RESULT: -12

QUERY: Give activity change, negative = inhibition for CC(=O)Nc1ccc(OC[C@](C)(O)C(=O)Nc2ccc([N+](=O)[O-])c(C(F)(F)F)c2)cc1
RESULT: 0.0964

QUERY: Give activity change, negative = inhibition for COc1ccccc1[C@H](c1cccc2ccccc12)[C@@](C)(C#N)C(=O)N1CCC(c2cccc(C(F)(F)F)c2)CC1
RESULT: -3.93

* * *

testDetails: Quantitative High-Throughput drug screen in 47 multiple myeloma cell lines against the NCATS MIPE library collection: JIM1_ECACC cell viability assay (AID 1918964)
conditionLabel: JIM1 myeloma viability, CellTiter-Glo ATP luminescence, 48 h; series mostly up to 45.8 µM
Inconclusive results are not listed. Active and inactive are the calls of the source. Calls follow the shape of the dose curve; as a rule, active = well fitted cell-killing curve with a large enough effect; inconclusive = small, poorly fitted or top-dose-only effect, or effect the other way; inactive = no such curve, though single readings can be large or run the other way.
Can you answer with just one of these options? 1.0 for active, 0.0 for inactive

QUERY: // param item: CC1=C(O)C(=O)C=C2C1=CC=C1[C@@]2(C)CC[C@@]2(C)[C@@H]3C[C@](C)(C(=O)O)CC[C@]3(C)CC[C@]12C ; yields the recorded call
RESULT: 1.0

QUERY: // param item: CCCC[N+]1(C)[C@H]2CC(OC(=O)[C@H](CO)c3ccccc3)C[C@H]1[C@H]1O[C@H]12 (some centres undefined) ; yields the recorded call
RESULT: 0.0

QUERY: // param item: CC(C)(C)[C@]1(O)C[C@@H]2OC(=O)C[C@@]23C(=O)O[C@@H]2OC(=O)[C@H](O)C213 (some centres undefined) ; yields the recorded call
RESULT: 1.0

QUERY: // param item: Cc1c(C(=O)Nc2cccc(C(F)(F)F)c2)cc(-c2ccccc2)n1CCCN1CCOCC1 ; yields the recorded call
RESULT: 1.0

QUERY: // param item: C[C@@H]1[C@H](O)[C@@H](C)C=CC=CCCC=CC=CC=CC=C[C@H](O[C@H]2O[C@@H](C)[C@H](O)[C@@H](N)[C@@H]2O)CC2O[C@](O)(C[C@@H](O)[C@H](O)CC[C@@H](O)C[C@@H](O)C[C@@H](O)CC(=O)O[C@H]1C)C[C@H](O)[C@H]2C(=O)O ; yields the recorded call
RESULT: 0.0

QUERY: // param item: O=C(Nc1ccncc1)C(=O)c1cn(Cc2ccc(Cl)cc2)c2ccccc12 ; yields the recorded call
RESULT: 1.0

QUERY: // param item: COc1ccc2c(c1)[C@]13CCCCC1C(C2)N(C)CC3 (some centres undefined) ; yields the recorded call
RESULT: 0.0

QUERY: // param item: CCCCCC[C@H]1C(=O)O[C@H](C)[C@H](NC(=O)c2cccc(NC=O)c2O)C(=O)O[C@@H](C)[C@@H]1OC(=O)CC(C)C ; yields the recorded call
RESULT: 1.0

QUERY: // param item: CCNC(=O)C[C@@H]1N=C(c2ccc(Cl)cc2)c2cc(OC)ccc2-n2c(C)nnc21 ; yields the recorded call
RESULT: 1.0

QUERY: // param item: COC1=CC(C)=C[C@@H](C)[C@@H](O)[C@@H](C)CC(C)=CC=C[C@H](OC)[C@H]([C@@H](C)[C@@H](O)[C@H](C)[C@@]2(O)C[C@@H](O)[C@H](C)[C@@H](C(C)C)O2)OC1=O ; yields the recorded call
RESULT: 1.0

QUERY: // param item: CC[C@H]1C=CC=CC[C@@H](C)[C@H](O)[C@@](C)(O)C(=O)[C@@H](C)[C@H](O)[C@@H](C)C(=O)[C@@H](C)[C@H](O)[C@@H](C)C=CC(=O)O[C@@H]2[C@@H](C)[C@H](CC1)O[C@]1(CC[C@H](C)[C@H](C[C@@H](C)O)O1)[C@H]2C ; yields the recorded call
RESULT: 1.0

QUERY: // param item: CC(=CCCC1=CCC(C2=CC(=O)OC2O)OC1O)CCC1=C(C)CCCC1(C)C (centres undefined) ; yields the recorded call
RESULT: 0.0

QUERY: // param item: O=C(O)CNC(=O)c1c(O)c2ccccc2n(Cc2ccccc2)c1=O ; yields the recorded call
RESULT: 0.0

QUERY: // param item: COCC1(CO)C(=O)C2CCN1CC2 (centres undefined) ; yields the recorded call
RESULT: 1.0
